tested.on: PfCRT^Ecu1110 (Plasmodium falciparum, UniProt Q9N623, A220S/I356L/K76T/N326D)
experiment: [3H]CQ uptake into Xenopus oocytes, cis-inhibition by unlabelled solute
Assay type: cell-based
conditions.used: [test solute] = 2 mM; PfCRTEcu1110 oocytes; background [3H]CQ accumulation subtracted; normalised to oocyte type control
In this section, each of the substances is paired with its reported PfCRT-mediated [3H]CQ transport, cis-inhibition (% PfCRTEcu1110 control).

Worked cases, answers included:
Ask: Name the recorded PfCRT-mediated [3H]CQ transport, cis-inhibition (% PfCRTEcu1110 control) for FSDGLA [FA-6] .
Reply: 32 ± 0.5 % PfCRTEcu1110 control

Ask: Name the recorded PfCRT-mediated [3H]CQ transport, cis-inhibition (% PfCRTEcu1110 control) for EFTPPVQ [EQ-7] .
Reply: 22 ± 2.9 % PfCRTEcu1110 control

Next:
Ask: Name the recorded PfCRT-mediated [3H]CQ transport, cis-inhibition (% PfCRTEcu1110 control) for DPENFR [DR-6] .
Reply: 27 ± 0.1 % PfCRTEcu1110 control

Ask: Name the recorded PfCRT-mediated [3H]CQ transport, cis-inhibition (% PfCRTEcu1110 control) for FPHFDLS [FS-7] .
Reply: 17 ± 0.8 % PfCRTEcu1110 control

Ask: Name the recorded PfCRT-mediated [3H]CQ transport, cis-inhibition (% PfCRTEcu1110 control) for SHCLLVT [ST-7] .
Reply: 19 ± 1.4 % PfCRTEcu1110 control

Ask: Name the recorded PfCRT-mediated [3H]CQ transport, cis-inhibition (% PfCRTEcu1110 control) for AEALERMF [AF-8] .
Reply: 32 ± 1.1 % PfCRTEcu1110 control

Ask: Name the recorded PfCRT-mediated [3H]CQ transport, cis-inhibition (% PfCRTEcu1110 control) for HVDPEN [HN-6] .
Reply: 49 ± 2.4 % PfCRTEcu1110 control

Ask: Name the recorded PfCRT-mediated [3H]CQ transport, cis-inhibition (% PfCRTEcu1110 control) for PHFDLS [PS-6] .
Reply: 21 ± 1.6 % PfCRTEcu1110 control

Ask: Name the recorded PfCRT-mediated [3H]CQ transport, cis-inhibition (% PfCRTEcu1110 control) for LSFPTTK [LK-7] .
Reply: 17 ± 0.4 % PfCRTEcu1110 control

Ask: Name the recorded PfCRT-mediated [3H]CQ transport, cis-inhibition (% PfCRTEcu1110 control) for HVDPENF [HF-7] .
Reply: 22 ± 0.4 % PfCRTEcu1110 control

Ask: Name the recorded PfCRT-mediated [3H]CQ transport, cis-inhibition (% PfCRTEcu1110 control) for LSDLHAHK [LK-8] .
Reply: 39 ± 2.4 % PfCRTEcu1110 control

Ask: Name the recorded PfCRT-mediated [3H]CQ transport, cis-inhibition (% PfCRTEcu1110 control) for VVYPWTQR [VR-8] .
Reply: 21 ± 1.4 % PfCRTEcu1110 control

---

tested.on: PfCRT^3D7 (Plasmodium falciparum, UniProt Q8IBZ9)
Sequence (Q8IBZ9 59-398): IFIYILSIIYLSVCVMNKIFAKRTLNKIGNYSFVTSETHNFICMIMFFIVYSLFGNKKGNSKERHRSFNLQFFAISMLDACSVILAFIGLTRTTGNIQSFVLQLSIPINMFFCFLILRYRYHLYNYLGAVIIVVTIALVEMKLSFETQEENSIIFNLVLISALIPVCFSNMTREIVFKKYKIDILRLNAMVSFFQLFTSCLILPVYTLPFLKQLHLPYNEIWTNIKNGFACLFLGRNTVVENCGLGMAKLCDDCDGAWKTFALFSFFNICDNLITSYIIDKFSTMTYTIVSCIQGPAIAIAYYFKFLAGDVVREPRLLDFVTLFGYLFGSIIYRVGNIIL
experiment: cell-based
Type: cell-based
conditions.used: […]; read-out: Uptake of [3H]CQ (% PfCRT3D7 control), trans-stimulation
measurement.label: activity at 45000 µM (%)
Lab book: enter the figure in %, no units written.

Worked cases, answers included:
Ask: Could you share what activity at 45000 µM was measured for `N[C@@H](CO)C(=O)O` , tested on PfCRT^3D7 (Plasmodium falciparum, UniProt Q8IBZ9)?
Reply: 99

Ask: Could you share what activity at 45000 µM was measured for `N[C@@H](Cc1c[nH]c2ccccc12)C(=O)O` , tested on PfCRT^3D7 (Plasmodium falciparum, UniProt Q8IBZ9)?
Reply: 101

Next:
Ask: Could you share what activity at 45000 µM was measured for `N[C@@H](Cc1ccccc1)C(=O)O` , tested on PfCRT^3D7 (Plasmodium falciparum, UniProt Q8IBZ9)?
Reply: 98

Ask: Could you share what activity at 45000 µM was measured for `NCCCC[C@H](N)C(=O)O` , tested on PfCRT^3D7 (Plasmodium falciparum, UniProt Q8IBZ9)?
Reply: 98

Ask: Could you share what activity at 45000 µM was measured for `CC[C@H](C)[C@H](N)C(=O)O` , tested on PfCRT^3D7 (Plasmodium falciparum, UniProt Q8IBZ9)?
Reply: 98

Ask: Could you share what activity at 45000 µM was measured for `N[C@@H](CS)C(=O)O` , tested on PfCRT^3D7 (Plasmodium falciparum, UniProt Q8IBZ9)?
Reply: 96

Ask: Could you share what activity at 45000 µM was measured for `C[C@@H](O)[C@H](N)C(=O)O` , tested on PfCRT^3D7 (Plasmodium falciparum, UniProt Q8IBZ9)?
Reply: 98

Ask: Could you share what activity at 45000 µM was measured for `N[C@@H](CCC(=O)O)C(=O)O` , tested on PfCRT^3D7 (Plasmodium falciparum, UniProt Q8IBZ9)?
Reply: 99

Ask: Could you share what activity at 45000 µM was measured for `N[C@@H](Cc1c[nH]cn1)C(=O)O` , tested on PfCRT^3D7 (Plasmodium falciparum, UniProt Q8IBZ9)?
Reply: 99

Ask: Could you share what activity at 45000 µM was measured for `NC(=O)CC[C@H](N)C(=O)O` , tested on PfCRT^3D7 (Plasmodium falciparum, UniProt Q8IBZ9)?
Reply: 100

Ask: Could you share what activity at 45000 µM was measured for `N=C(N)NCCC[C@H](N)C(=O)O` , tested on PfCRT^3D7 (Plasmodium falciparum, UniProt Q8IBZ9)?
Reply: 98

---

tested.on: PfCRT^Dd2 (Plasmodium falciparum, UniProt Q9N623, A220S/I356T/K76T/M74I/N326S/N75E/Q271E/R371I)
Sequence (Q9N623 whole entry A220S/I356T/K76T/M74I/N326S/N75E/Q271E/R371I): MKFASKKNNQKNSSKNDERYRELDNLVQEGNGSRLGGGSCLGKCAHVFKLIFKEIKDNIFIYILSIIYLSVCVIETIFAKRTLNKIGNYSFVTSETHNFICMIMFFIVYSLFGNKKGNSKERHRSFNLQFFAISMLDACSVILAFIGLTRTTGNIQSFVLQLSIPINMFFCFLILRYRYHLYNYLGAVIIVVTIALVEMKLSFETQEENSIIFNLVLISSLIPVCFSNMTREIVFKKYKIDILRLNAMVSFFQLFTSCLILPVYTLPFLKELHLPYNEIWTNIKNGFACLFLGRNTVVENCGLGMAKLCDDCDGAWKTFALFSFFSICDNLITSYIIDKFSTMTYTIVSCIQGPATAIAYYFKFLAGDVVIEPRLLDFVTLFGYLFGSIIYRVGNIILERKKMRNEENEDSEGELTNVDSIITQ
experiment: [3H]CQ uptake into Xenopus oocytes, cis-inhibition by unlabelled solute
Assay type: cell-based
conditions.used: read-out: Uptake of [3H]CQ (% PfCRTDd2 control), cis-inhibition, PfCRTDd2; SEM
measurement.label: inhibition at 500 µM (%)
Lab book: enter the figure in %, no units written.

Worked cases, answers included:
Ask: Name the recorded inhibition at 500 µM for `CSCC[C@H](N)C(=O)O` .
Reply: 98

Ask: Name the recorded inhibition at 500 µM for `N[C@@H](Cc1c[nH]c2ccccc12)C(=O)O` .
Reply: 96

Ask: Name the recorded inhibition at 500 µM for `N[C@@H](CS)C(=O)O` .
Reply: 97

Ask: Name the recorded inhibition at 500 µM for `N[C@@H](CO)C(=O)O` .
Reply: 101

Ask: Name the recorded inhibition at 500 µM for `NCCCC[C@H](N)C(=O)O` .
Reply: 96

Ask: Name the recorded inhibition at 500 µM for `N[C@@H](Cc1c[nH]cn1)C(=O)O` .
Reply: 98

Next:
Ask: Name the recorded inhibition at 500 µM for `CC(C)C[C@H](N)C(=O)O` .
Reply: 100

Ask: Name the recorded inhibition at 500 µM for `N[C@@H](Cc1ccccc1)C(=O)O` .
Reply: 96

---

tested.on: PfCRT^3D7 (Plasmodium falciparum, UniProt Q8IBZ9)
experiment: cell-based
Assay type: cell-based
conditions.used: PfCRT3D7 oocytes; [test solute] = 1 mM; total [3H]CQ transport, normalised to the oocyte type control; read-out: Uptake of [3H]CQ (% PfCRT3D7 control), cis-inhibition
In this section, each of the compounds is paired with its reported inhibition at 1000 µM.
Lab book: enter the figure in %, no units written.

Worked cases, answers included:
Ask: Could you share what inhibition at 1000 µM was measured for CC(C)[C@H](N)C(=O)O [L-valine] , tested on PfCRT^3D7 (Plasmodium falciparum, UniProt Q8IBZ9)?
Reply: 99

Ask: Could you share what inhibition at 1000 µM was measured for N[C@@H](CCC(=O)O)C(=O)O [L-glutamic acid] , tested on PfCRT^3D7 (Plasmodium falciparum, UniProt Q8IBZ9)?
Reply: 101

Ask: Could you share what inhibition at 1000 µM was measured for N[C@@H](Cc1c[nH]c2ccccc12)C(=O)O [L-tryptophan] , tested on PfCRT^3D7 (Plasmodium falciparum, UniProt Q8IBZ9)?
Reply: 99

Ask: Could you share what inhibition at 1000 µM was measured for N[C@@H](CS)C(=O)O [L-cysteine] , tested on PfCRT^3D7 (Plasmodium falciparum, UniProt Q8IBZ9)?
Reply: 100

Ask: Could you share what inhibition at 1000 µM was measured for N[C@@H](Cc1ccccc1)C(=O)O [L-phenylalanine] , tested on PfCRT^3D7 (Plasmodium falciparum, UniProt Q8IBZ9)?
Reply: 99

Proceeding to the next compound to report its inhibition at 1000 µM.
Ask: Could you share what inhibition at 1000 µM was measured for N[C@@H](Cc1c[nH]cn1)C(=O)O [L-histidine] , tested on PfCRT^3D7 (Plasmodium falciparum, UniProt Q8IBZ9)?
Reply: 99
